# Test system: P12-Ichikawa
# RUN_DESCRIPTION: cell viability relative to DMSO control; higher = less cytotoxic
# STATED_CONDITIONS: RPMI 5 mM glucose + 10% FBS; 48 h; 46.1 µM
PARAMETER: cell viability
Param answer (str): number followed by unit.

// solved cases for cell viability follow
| SMI | cell viability |
| --- | --- |
| FC1=CC=C(CN2\C=C/C=C(/C(=O)N[C@@H](COC3=CC4=C(NC(=O)N4)C=C3)C5=CC=CC=C5)C2=O)C=C1F | 44.8% |
| C[C@@H](NCc1cc2ccccc2[nH]1)c1cccc2ccccc12 | 92.2% |
| CCCCOc1ccc(CC(=O)NO)cc1 | 59.1% |

Fill blank: measured cell viability of the compound CCCC(CCC)C(=O)[O-] is ____.
94.8%
